- assay.comment: qHTS for Inhibitors of Inflammasome Signaling: IL-1-beta AlphaLISA Primary Screen; further: on the % scale 0 is the no-effect control and ±100 the full control effect
- cond: THP-1 LPS/ATP IL-1B secretion, 16 h; at 57.5 µM, active compounds read low
Screen size: about 360,000 compounds; about 17,000 (4.7%) were called active. Inconclusive results (about 5%) are left out. For the sample, actives were picked, then their nearest neighbours and some compounds at random.
readout.type: activity change (%)

INSERT INTO measurements (compound, readout_type, endpoint_result) VALUES
  ('CC(C)=CCc1ccc(O)c(=O)cc1C(C)C', 'activity change', 1.89),
  ('C[C@]12CCC(=O)C=C1C=CC1C2CC[C@@]2(C)C1CC[C@@]21CCC(=O)O1 (stereo not given in full)', 'activity change', -21.4),
  ('CCOC(=O)[C@]12CCCC=C1N(CCC1=CCCCC1)C(=O)[C@H](CC(=O)N1CCOCC1)C2', 'activity change', 12.3),
  ('CCOC(=O)[C@]12CCCC=C1N(Cc1cccc3ccccc13)C(=O)[C@H](CC(=O)NCC13CC4CC(CC(C4)C1)C3)C2', 'activity change', -26.5),
  ('Cc1oc2cc3oc(=O)ccc3cc2c1C', 'activity change', -4.45);

* * *

- assay.comment: qHTS for Inhibitors of Inflammasome Signaling: IL-1-beta AlphaLISA Primary Screen
- cond: THP-1 LPS/ATP IL-1B secretion, 16 h; at 57.5 µM, active compounds read low
The whole screen tested about 360,000 compounds, of which about 17,000 (4.7%) were called active. Another 5% or so got no clear call; they are omitted. Shown is part of a subset that was picked to be rich in actives.
readout.type: activity change (%)

INSERT INTO measurements (compound, endpoint_result) VALUES
  ('Cc1ccc(Cc2c(-c3ccc(C)cc3)nc3c4ccccc4ccn23)cc1', 27.7),
  ('C#CCOCCOCCOCCNc1nc(N2CCN(C(=O)CCCCCCCCCCNC(=O)Cn3cc(CCCCCN)nn3)CC2)nc(N2CCN(C(=O)CCCCCCCCCCNC(=O)[C@H](CO)n3cc(CCCSC)nn3)CC2)n1', -72.1),
  ('C#CCOCCOCCOCCNc1nc(N2CCN(C(=O)Cn3cc(CCO)nn3)CC2)nc(N2CCN(C(=O)Cn3cc(CCCN=C(N)N)nn3)CC2)n1', 12.6),
  ('CN(C)C(CNC(=O)c1ccc(OCc2cn3ccccc3n2)cc1)c1ccco1 (centres undefined)', 3.62),
  ('CC1CCCC(NC(=O)c2cccc(N3CCCC3=O)c2)C1C (centres undefined)', 9.06),
  ('C#CCOCCOCCOCCNc1nc(N2CCN(C(=O)Cn3cc(CCCCN)nn3)CC2)nc(N2CCN(C(=O)[C@H](CCCCN)n3cc(CCC(=O)O)nn3)CC2)n1', 58.3),
  ('C#CCOCCOCCOCCNc1nc(N2CCN(C(=O)[C@H](C(C)C)n3cc(CCO)nn3)CC2)nc(N2CCN(C(=O)[C@H]([C@@H](C)CC)n3cc(CCCN=C(N)N)nn3)CC2)n1', -5.99),
  ('C#CCOCCOCCOCCNc1nc(N2CCN(C(=O)[C@H](CCCCN)n3cc(CCC(=O)O)nn3)CC2)nc(N2CCN(C(=O)[C@H](CCCCN)n3cc(CC(C)O)nn3)CC2)n1 (some centres undefined)', 3.3),
  ('Cn1c(=N)n(CC(O)c2cccs2)c2ccccc21 (centres undefined)', 0),
  ('C#CCOCCOCCOCCNc1nc(N2CCN(C(=O)CCCCCCCCCCNC(=O)[C@H]([C@@H](C)CC)n3cc(CCCCN=C(N)N)nn3)CC2)nc(N2CCN(C(=O)CCCCCCCCCCNC(=O)[C@H](CO)n3cc(CCCSC)nn3)CC2)n1', -111),
  ('Cc1sc2ccccc2c1CNC[C@H]1O[C@@H](n2ccc(=O)[nH]c2=O)[C@H](O)[C@@H]1O', -9.54),
  ('O=C1/C(=C\c2ccc(O)cc2)CCC1CNc1ccc(Cl)cc1 (centres undefined)', -106),
  ('C#CCOCCOCCOCCNc1nc(N2CCN(C(=O)CCCCCCCCCCNC(=O)[C@H](CCCCN)n3cc(C)nn3)CC2)nc(N2CCN(C(=O)CCCCCCCCCCNC(=O)[C@H](CO)n3cc(CCCSC)nn3)CC2)n1', -81.7),
  ('Cc1ccc(S(=O)(=O)N2CCC(=O)N([C@H](COCc3ccccc3)C(C)C)CC2)cc1', 29.8);
